// provenance: the supplement of paper PMC11579375

Give area under the viability dose-response curve for every item shown.
- System: 135F2 (fetal-II hepatoblastoma organoid with high liver markers)
- assay-method-text: area under the viability dose-response curve (AUC) (AUC (arbitrary units, max 500 = no viability loss)); higher = less sensitive (higher viability)
- reported-conditions: exposure time: 120 h; concentration range: 0.1 nM - 10 µM, 6 doses
// no unit, no text: just the number

Qu. # query: area under the viability dose-response curve of entry CN(C)CCNC(=O)c1cccn2c(=O)c3cc4ccccc4cc3nc12
Ans. 416

Qu. Consider next the molecule CC(C)C[C@H](NC(=O)[C@H](Cc1ccccc1)NC(=O)c1cnccn1)B(O)O in the same way.
Ans. 191

Qu. Try CNCc1ccccc1-c1csc([C@@H](C)Nc2nc(C)nc3cc(OC)c(OC)cc23)c1 next.
Ans. 446

Qu. Cool, now C[C@@H]1CN(C(=O)c2ccc(NC(=O)c3cc(O[C@H](C)c4c(Cl)ccc(F)c4Cl)c(N)nn3)cc2)C[C@H](C)N1
Ans. 449

Qu. Now consider Cc1sc2c(c1C)C(c1ccc(Cl)cc1)=N[C@@H](CC(=O)NCCCN1CCN(C)CC1)c1nnc(C)n1-2 [(S)-JQ-35] and answer again.
Ans. 388

Qu. Continue with CNc1nc(-c2nc3ccc(N4CCN(C)CC4)cc3n2Cc2ccccc2)cn2c(C)nnc12
Ans. 309

Qu. Please give the result for CCCS(=O)(=O)Nc1ccc(F)c(C(=O)c2c[nH]c3ncc(-c4ccc(Cl)cc4)cc23)c1F too.
Ans. 498

Qu. # iterate: O=NN(CCCl)C(=O)NC1CCCCC1
Ans. 487

Qu. Also COc1ccc(Cn2ccc3ccc(C(=O)NO)cc32)cc1 , if possible.
Ans. 488

Qu. How about Cn1cc(-c2cc3c(N4CCN(c5ncc([C@@](C)(N)c6ccc(F)cc6)cn5)CC4)ncnn3c2)cn1 ?
Ans. 437

Qu. Likewise for CC(C)n1c(=O)n(C)c2cnc3cc(F)c(-c4ccc(OCCCN5CCCCC5)nc4)cc3c21 ?
Ans. 440

Qu. // next record CN1CCN(c2ccc(C(=O)Nc3n[nH]c4ccc(Cc5cc(F)cc(F)c5)cc34)c(NC3CCOCC3)c2)CC1
Ans. 438

Qu. Next record, please: C[C@H](NC(=O)Cc1cc(F)cc(F)c1)C(=O)N[C@@H]1C(=O)N(C)c2ccccc2-c2ccccc21
Ans. 472

Qu. One more molecule: CC(=O)O[C@H]1C(=O)[C@@]2(C)[C@H]([C@H](OC(=O)c3ccccc3)[C@]3(O)C[C@H](OC(=O)[C@H](O)[C@@H](NC(=O)c4ccccc4)c4ccccc4)C(C)=C1C3(C)C)[C@]1(OC(C)=O)CO[C@@H]1C[C@@H]2O
Ans. 211

Qu. Let us now turn to Cc1cccc(-c2nn3c(c2-c2ccnc4ccc(C(N)=O)cc24)CCC3)n1
Ans. 493

Qu. // next record COc1ncc(-c2nc3c(n2C(C)C)[C@H](c2ccc(Cl)cc2)N(c2cc(Cl)cn(C)c2=O)C3=O)c(OC)n1
Ans. 328

Qu. And CC1(C)CCC(c2ccc(Cl)cc2)=C(CN2CCN(c3ccc(C(=O)NS(=O)(=O)c4ccc(N[C@H](CCN5CCOCC5)CSc5ccccc5)c(S(=O)(=O)C(F)(F)F)c4)cc3)CC2)C1 ?
Ans. 425

Qu. Consider next the molecule NC(=O)/C(=C/n1cnc(-c2cc(C(F)(F)F)cc(C(F)(F)F)c2)n1)c1cncnc1 [Eltanexor] in the same way.
Ans. 371

Qu. How about N#CC[C@H](C1CCCC1)n1cc(-c2ncnc3[nH]ccc23)cn1 ?
Ans. 491

Qu. What do we get for CC(C)NC[C@@H](C(=O)N1CCN(c2ncnc3c2[C@H](C)C[C@H]3O)CC1)c1ccc(Cl)cc1 ?
Ans. 496

Qu. Same question, CN[C@@H](C)C(=O)N[C@H](C(=O)N1CCC[C@H]1C(=O)N[C@H]1c2ccccc2C[C@H]1OCC#CC#CCO[C@@H]1Cc2ccccc2[C@@H]1NC(=O)[C@@H]1CCCN1C(=O)[C@@H](NC(=O)[C@H](C)NC)C1CCCCC1)C1CCCCC1 this time
Ans. 483

Qu. Also CNCc1ccc(-c2cc(-c3nc(-c4ccc(S(=O)(=O)C(C)C)cc4)cnc3N)on2)cc1 ?
Ans. 391

Qu. Query CC(=O)Nc1cccc(-n2c(=O)n(C3CC3)c(=O)c3c(Nc4ccc(I)cc4F)n(C)c(=O)c(C)c32)c1 next
Ans. 281

Qu. Follow-up entry: CC(C)(C)c1cc(NC(=O)Nc2ccc(-c3cn4c(n3)sc3cc(OCCN5CCOCC5)ccc34)cc2)no1
Ans. 489

Qu. Input Cc1sc2c(c1C)C(c1ccc(Cl)cc1)=N[C@@H](CC(=O)Nc1ccc(O)cc1)c1nnc(C)n1-2
Ans. 354

Qu. Also C=CC(=O)N1C[C@H](Nc2ncnc3[nH]ccc23)CC[C@@H]1C ?
Ans. 471

* * *

- Tested on: 13F2 (fetal-II hepatoblastoma organoid with high liver markers)
- assay-method-text: area under the viability dose-response curve (AUC) (AUC (arbitrary units, max 500 = no viability loss)); higher = less sensitive (higher viability)
- reported-conditions: exposure time: 120 h; concentration range: 0.1 nM - 10 µM, 6 doses
Lab note: cut-off is 400. Strictly less in area under the viability dose-response curve is Y. Exactly 400 or more is N.

Qu. # strict comparison: is reported area under the viability dose-response curve < 400? input = CCN1CCN(Cc2ccc(Nc3ncc(F)c(-c4cc(F)c5nc(C)n(C(C)C)c5c4)n3)nc2)CC1
Ans. Y

Qu. Please answer likewise for CS(=O)(=O)N1CCN(Cc2cc3nc(-c4cccc5[nH]ncc45)nc(N4CCOCC4)c3s2)CC1
Ans. Y

Qu. Another molecule: Cc1ncc(Cl)cc1NCc1ccc(C(=O)N[C@@H](CC2CCCC2)C(=O)NC2CC2)s1
Ans. N

Qu. Repeat for the following molecule: CC(=O)Nc1cccc(-n2c(=O)n(C3CC3)c(=O)c3c(Nc4ccc(I)cc4F)n(C)c(=O)c(C)c32)c1
Ans. Y

Qu. Now the same for COc1cccc(OCCCN)c1-c1cc(Nc2cnc(C#N)cn2)n[nH]1
Ans. Y

Qu. How about CC(C)C[C@H](NC(=O)CNC(=O)c1cc(Cl)ccc1Cl)B(O)O ?
Ans. Y

Qu. Moving on to O=c1cc(-c2cccc3c2Sc2ccccc2S3)oc(N2CCOCC2)c1
Ans. N

Qu. Repeat for the following molecule: CC[C@@]1(O)C(=O)OCc2c1cc1n(c2=O)Cc2cc3ccccc3nc2-1
Ans. Y

Qu. Try this molecule too: O=c1nc(N2CCOCC2)oc2c(-c3cccc4c3sc3ccccc34)cccc12
Ans. N

Qu. Also need COc1cc2nccc(Oc3ccc(NC(=O)NC4CC4)c(Cl)c3)c2cc1C(N)=O , thanks.
Ans. N

Qu. And the next one, O=C(c1cc(Cc2n[nH]c(=O)c3ccccc23)ccc1F)N1CCN(C(=O)C2CC2)CC1 ?
Ans. N

Qu. Param item: C[C@@H](NC(=O)c1ncnc(N)c1Cl)c1ncc(C(=O)Nc2cc(C(F)(F)F)c(Cl)cn2)s1
Ans. N

Qu. // same read-out, input: N#CCNC(=O)c1ccc(-c2ccnc(Nc3ccc(N4CCOCC4)cc3)n2)cc1
Ans. N

* * *

- Tested on: 3E (embryonal-type hepatoblastoma organoid)
- assay-method-text: area under the viability dose-response curve (AUC) (AUC (arbitrary units, max 500 = no viability loss)); higher = less sensitive (higher viability)
- reported-conditions: exposure time: 120 h; concentration range: 0.1 nM - 10 µM, 6 doses
Consider the following compounds; for each one, report its area under the viability dose-response curve.

Qu. // lookup area under the viability dose-response curve for C[C@@H]1C[C@H]2[C@@H]3CCC4=CC(=O)C=C[C@]4(C)[C@@]3(F)[C@@H](O)C[C@]2(C)[C@@]1(O)C(=O)CO [Dexamethasone]
Ans. > 500

Qu. Cool, now Cc1cc(-c2ncc(CC(=O)Nc3ccc(-c4cnccn4)cn3)cc2C)ccn1 [LGK974]
Ans. > 500

Qu. Ok, now CN1CC[C@@H](NC(=O)Nc2ccc(C#N)cc2)C[C@@H]1c1nc2ccccc2[nH]1 [Glasdegib]
Ans. > 500

* * *

- Test system: 3E
- assay-method-text: area under the viability dose-response curve (AUC) (AUC (arbitrary units, max 500 = no viability loss)); higher = less sensitive (higher viability)
- reported-conditions: exposure time: 120 h; concentration range: 0.1 nM - 10 µM, 6 doses
experimental-readout: area under the viability dose-response curve

Qu. I'd like to know its area under the viability dose-response curve. The compound in question is CC(C)N(C[C@H]1O[C@@H](n2cnc3c(N)ncnc32)[C@H](O)[C@@H]1O)[C@H]1C[C@@H](CCc2nc3cc(C(C)(C)C)ccc3[nH]2)C1
Ans. > 500

Qu. Entry to check: N[C@@H](Cc1ccc(N(CCCl)CCCl)cc1)C(=O)O
Ans. > 500

Qu. Do the same for CN(C)/N=N/c1[nH]cnc1C(N)=O please
Ans. > 500
